Assay: yeast display, Sf9 membrane polyspecificity reagent, FACS + sequencing; frameworks hold sequencing errors
readoutType: polyreactivity (PSR sort gate)

Problem: Which polyreactivity (PSR sort gate) value is on record for QVQLVESGGGLVQAGGSLRLSCAASGRIFWDNAMGWYRQAPGKERELVAAIDYRGGNTNYADSVKGRFTISRDNAKNTVYFQMNSLKPEDTAVYYCNAEWAVRYPGYDYWGQGSQVTVSS ?
Solution: low polyreactivity

Problem: Next entry: QVQLVESGGGLVQAGGSLRLSCAASGVNAMGWYRQAPGKEREFVAAITSIGGSTYYADSVKGRFTISRDNAKNTVYLQMNSLKPEDTAVYYCNTDRGPVKVSPLYESWGQGTQVTVSS
Solution: low polyreactivity
